Some compounds, each annotated with its measured pIC50.
test system: P. falciparum Dd2; experiment: microbe, parasite or virus in culture; format: cell-based; settings: Plasmodium falciparum, DD2, 72 h, read-out: PfDd2 IC50
pIC50: −log10 of the molar value.

[
  {
    "COMPOUND": "C[C@H]1[C@H](SCc2ccc(C(=O)NO)cc2)O[C@@H]2O[C@@]3(C)CC[C@H]4[C@H](C)CC[C@@H]1[C@@]24OO3",
    "pIC50": 8.49
  },
  {
    "COMPOUND": "C[C@H]1[C@H](OCc2ccc(C(=O)NO)cc2)O[C@@H]2O[C@@]3(C)CC[C@H]4[C@H](C)CC[C@@H]1[C@@]24OO3",
    "pIC50": 8.70
  },
  {
    "COMPOUND": "C[C@@H]1CC[C@H]2[C@@H](C)C(SCCCCCC(=O)NO)O[C@@H]3O[C@@]4(C)CC[C@@H]1[C@]32OO4 (stereo partly shown)",
    "pIC50": 8.18
  },
  {
    "COMPOUND": "C[C@@H]1CC[C@H]2[C@@H](C)C(OCc3ccc(/C=C/C(=O)Nc4ccccc4N)cc3)O[C@@H]3O[C@@]4(C)CC[C@@H]1[C@]32OO4 (stereo partly shown)",
    "pIC50": 8.60
  },
  {
    "COMPOUND": "C[C@H]1[C@H](Sc2ccc(CC(=O)NO)cc2)O[C@@H]2O[C@@]3(C)CC[C@H]4[C@H](C)CC[C@@H]1[C@@]24OO3",
    "pIC50": 8.80
  },
  {
    "COMPOUND": "C[C@H]1[C@@H](SCc2ccc(C(=O)NO)cc2)O[C@@H]2O[C@@]3(C)CC[C@H]4[C@H](C)CC[C@@H]1[C@@]24OO3",
    "pIC50": 8.47
  },
  {
    "COMPOUND": "C[C@H]1[C@@H](Sc2ccc(CC(=O)NO)cc2)O[C@@H]2O[C@@]3(C)CC[C@H]4[C@H](C)CC[C@@H]1[C@@]24OO3",
    "pIC50": 8.74
  },
  {
    "COMPOUND": "C[C@@H]1CC[C@H]2[C@@H](C)C(OCc3ccc(/C=C/C(=O)O)cc3)O[C@@H]3O[C@@]4(C)CC[C@@H]1[C@]32OO4 (stereo partly shown)",
    "pIC50": 8.24
  },
  {
    "COMPOUND": "C[C@H]1[C@@H](O)O[C@@H]2O[C@@]3(C)CC[C@H]4[C@H](C)CC[C@@H]1[C@@]24OO3 [DHA, dihydroartemisinin]",
    "pIC50": 8.74
  },
  {
    "COMPOUND": "C[C@@H]1CC[C@H]2[C@@H](C)C(OCc3ccc(/C=C/C(=O)NO)cc3)O[C@@H]3O[C@@]4(C)CC[C@@H]1[C@]32OO4 (stereo partly shown)",
    "pIC50": 8.77
  }
]

* * *

Below are molecules with their IC50 as measured on human HDAC1 (hHDAC1) (Homo sapiens).
Sequence (Q13547 whole entry): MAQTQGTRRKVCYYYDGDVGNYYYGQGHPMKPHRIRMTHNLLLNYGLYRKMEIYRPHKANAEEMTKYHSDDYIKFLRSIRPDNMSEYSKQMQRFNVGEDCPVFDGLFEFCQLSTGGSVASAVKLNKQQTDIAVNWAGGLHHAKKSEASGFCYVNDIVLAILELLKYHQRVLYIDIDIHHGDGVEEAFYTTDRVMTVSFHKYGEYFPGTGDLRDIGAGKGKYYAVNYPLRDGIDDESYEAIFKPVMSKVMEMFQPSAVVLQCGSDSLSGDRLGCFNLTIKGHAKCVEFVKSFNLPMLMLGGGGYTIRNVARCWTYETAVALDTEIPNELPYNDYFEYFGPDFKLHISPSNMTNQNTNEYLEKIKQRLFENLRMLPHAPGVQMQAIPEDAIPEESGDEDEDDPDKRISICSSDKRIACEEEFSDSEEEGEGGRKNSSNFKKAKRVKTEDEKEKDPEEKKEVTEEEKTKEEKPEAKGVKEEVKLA

[
  {
    "MOLECULE": "C[C@H]1[C@H](SCc2ccc(C(=O)NO)cc2)O[C@@H]2O[C@@]3(C)CC[C@H]4[C@H](C)CC[C@@H]1[C@@]24OO3 [(β)-7c]",
    "UNITS": "µM",
    "PREFIX_OPERATOR": "=",
    "IC50": 2.79
  },
  {
    "MOLECULE": "C[C@H]1[C@H](Sc2ccc(CC(=O)NO)cc2)O[C@@H]2O[C@@]3(C)CC[C@H]4[C@H](C)CC[C@@H]1[C@@]24OO3 [(β)-7e]",
    "UNITS": "µM",
    "PREFIX_OPERATOR": ">",
    "IC50": 10
  },
  {
    "MOLECULE": "C[C@H]1[C@@H](SCc2ccc(C(=O)NO)cc2)O[C@@H]2O[C@@]3(C)CC[C@H]4[C@H](C)CC[C@@H]1[C@@]24OO3 [(α)-7c]",
    "UNITS": "µM",
    "PREFIX_OPERATOR": "=",
    "IC50": 2
  },
  {
    "MOLECULE": "C[C@H]1[C@@H](O)O[C@@H]2O[C@@]3(C)CC[C@H]4[C@H](C)CC[C@@H]1[C@@]24OO3 [DHA, dihydroartemisinin]",
    "UNITS": "µM",
    "PREFIX_OPERATOR": ">",
    "IC50": 10
  }
]

* * *

tested on: P. falciparum 3D7; experiment: microbe, parasite or virus in culture; format: cell-based; settings: Plasmodium falciparum, 3D7, 72 h; asexual blood stages, three days incubation; n ≥ 2 in duplicate, mean ± SD; read-out: Pf3D7 IC50
VALUE_KIND: IC50 (nM)

[
  {
    "MOLECULE": "C[C@@H]1CC[C@H]2[C@@H](C)C(OCc3ccc(/C=C/C(=O)Nc4ccccc4N)cc3)O[C@@H]3O[C@@]4(C)CC[C@@H]1[C@]32OO4 (stereo partly shown)",
    "UNITS": "nM",
    "NUMBER": 2.5
  },
  {
    "MOLECULE": "C[C@H]1[C@H](OCc2ccc(C(=O)NO)cc2)O[C@@H]2O[C@@]3(C)CC[C@H]4[C@H](C)CC[C@@H]1[C@@]24OO3",
    "UNITS": "nM",
    "NUMBER": 2.8
  },
  {
    "MOLECULE": "C[C@H]1[C@H](Sc2ccc(CC(=O)NO)cc2)O[C@@H]2O[C@@]3(C)CC[C@H]4[C@H](C)CC[C@@H]1[C@@]24OO3",
    "UNITS": "nM",
    "NUMBER": 2.6
  },
  {
    "MOLECULE": "C[C@H]1[C@@H](Sc2ccc(CC(=O)NO)cc2)O[C@@H]2O[C@@]3(C)CC[C@H]4[C@H](C)CC[C@@H]1[C@@]24OO3",
    "UNITS": "nM",
    "NUMBER": 3.1
  }
]

* * *

Target: human HDAC6 (hHDAC6) (Homo sapiens)
Sequence (Q9UBN7 1-1215): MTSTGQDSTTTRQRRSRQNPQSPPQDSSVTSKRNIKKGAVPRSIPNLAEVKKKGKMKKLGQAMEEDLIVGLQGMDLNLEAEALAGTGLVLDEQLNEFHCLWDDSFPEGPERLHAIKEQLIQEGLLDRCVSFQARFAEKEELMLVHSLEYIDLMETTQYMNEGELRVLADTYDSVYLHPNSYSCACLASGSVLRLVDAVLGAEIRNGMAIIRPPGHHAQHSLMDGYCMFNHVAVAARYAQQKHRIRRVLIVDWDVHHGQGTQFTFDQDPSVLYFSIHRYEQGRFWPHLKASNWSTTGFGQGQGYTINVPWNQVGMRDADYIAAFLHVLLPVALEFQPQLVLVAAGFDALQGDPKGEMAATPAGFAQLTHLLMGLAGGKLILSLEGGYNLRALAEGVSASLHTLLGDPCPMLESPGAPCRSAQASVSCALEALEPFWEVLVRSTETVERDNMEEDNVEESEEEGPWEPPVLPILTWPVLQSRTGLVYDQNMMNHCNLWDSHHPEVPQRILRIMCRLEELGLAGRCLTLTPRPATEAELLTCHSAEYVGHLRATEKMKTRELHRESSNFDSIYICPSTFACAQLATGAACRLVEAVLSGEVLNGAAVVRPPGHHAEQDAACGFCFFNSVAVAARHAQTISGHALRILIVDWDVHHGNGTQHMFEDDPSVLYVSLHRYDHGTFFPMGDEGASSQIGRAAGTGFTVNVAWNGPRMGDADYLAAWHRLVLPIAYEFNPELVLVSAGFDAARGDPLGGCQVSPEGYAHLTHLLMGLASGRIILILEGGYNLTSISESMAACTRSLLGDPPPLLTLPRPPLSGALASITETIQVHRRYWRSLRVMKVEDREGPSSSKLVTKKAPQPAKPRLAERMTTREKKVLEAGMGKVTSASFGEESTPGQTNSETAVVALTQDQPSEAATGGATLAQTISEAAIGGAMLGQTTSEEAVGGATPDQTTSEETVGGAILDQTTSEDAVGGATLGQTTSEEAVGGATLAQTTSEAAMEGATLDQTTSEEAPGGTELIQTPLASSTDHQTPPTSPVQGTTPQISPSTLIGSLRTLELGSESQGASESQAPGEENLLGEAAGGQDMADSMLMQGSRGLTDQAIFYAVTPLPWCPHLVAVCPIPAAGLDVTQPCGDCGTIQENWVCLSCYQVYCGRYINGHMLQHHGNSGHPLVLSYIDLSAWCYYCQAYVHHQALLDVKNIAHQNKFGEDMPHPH
VALUE_KIND: IC50

[
  {
    "MOLECULE": "C[C@H]1[C@@H](O)O[C@@H]2O[C@@]3(C)CC[C@H]4[C@H](C)CC[C@@H]1[C@@]24OO3 [DHA, dihydroartemisinin]",
    "RESULT": "> 10000 nM"
  },
  {
    "MOLECULE": "C[C@@H]1CC[C@H]2[C@@H](C)C(OCc3ccc(/C=C/C(=O)O)cc3)O[C@@H]3O[C@@]4(C)CC[C@@H]1[C@]32OO4 (stereo partly shown) [Compound 6a]",
    "RESULT": "> 10000 nM"
  },
  {
    "MOLECULE": "C[C@H]1[C@H](SCc2ccc(C(=O)NO)cc2)O[C@@H]2O[C@@]3(C)CC[C@H]4[C@H](C)CC[C@@H]1[C@@]24OO3 [(β)-7c]",
    "RESULT": "41 nM"
  },
  {
    "MOLECULE": "C[C@H]1[C@@H](SCc2ccc(C(=O)NO)cc2)O[C@@H]2O[C@@]3(C)CC[C@H]4[C@H](C)CC[C@@H]1[C@@]24OO3 [(α)-7c]",
    "RESULT": "36 nM"
  }
]
